# TARGET: Fes (UniProt P07332)
# Sequence (P07332 whole entry, looked up): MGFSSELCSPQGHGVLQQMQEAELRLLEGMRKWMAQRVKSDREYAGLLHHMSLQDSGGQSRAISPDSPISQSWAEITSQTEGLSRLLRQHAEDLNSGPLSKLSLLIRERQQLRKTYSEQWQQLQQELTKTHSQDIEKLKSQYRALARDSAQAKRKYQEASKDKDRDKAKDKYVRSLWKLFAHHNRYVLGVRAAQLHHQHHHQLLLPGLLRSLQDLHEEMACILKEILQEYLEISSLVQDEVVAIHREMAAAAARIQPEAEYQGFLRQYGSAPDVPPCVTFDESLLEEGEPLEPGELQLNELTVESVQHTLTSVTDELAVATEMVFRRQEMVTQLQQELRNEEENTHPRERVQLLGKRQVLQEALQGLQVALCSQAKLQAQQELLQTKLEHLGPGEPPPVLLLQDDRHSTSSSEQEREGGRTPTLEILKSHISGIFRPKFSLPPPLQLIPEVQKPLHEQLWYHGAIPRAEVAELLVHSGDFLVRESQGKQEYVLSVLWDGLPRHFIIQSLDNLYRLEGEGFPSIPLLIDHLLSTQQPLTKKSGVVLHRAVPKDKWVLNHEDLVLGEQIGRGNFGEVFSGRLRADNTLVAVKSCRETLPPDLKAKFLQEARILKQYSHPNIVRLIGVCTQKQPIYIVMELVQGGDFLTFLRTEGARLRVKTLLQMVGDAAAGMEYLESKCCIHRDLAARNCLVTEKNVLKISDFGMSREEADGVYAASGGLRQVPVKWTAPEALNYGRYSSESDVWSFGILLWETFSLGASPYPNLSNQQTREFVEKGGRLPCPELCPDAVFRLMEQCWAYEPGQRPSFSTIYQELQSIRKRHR
# TEST: phosphorylation enrichment, bacterial display (enrichment ratio); higher = better substrate or ligand; peptides without Tyr show the background
Each entry falls in a class defined on phosphorylation enrichment; the bands are bin 1: < 0.7; bin 2: ≥ 0.7 and < 1; bin 3: ≥ 1

Prompt: The entry to classify is VSRGRYRPEEC [B4GALT4_Y113_Q116E] ; which class holds it?
Response: bin 1

Prompt: The entry to classify is GKSDPYHATSG [GJA1_Y247] ; which class holds it?
Response: bin 1

Prompt: The entry to classify is KVGNEYVTKGQ [MYH7_Y410] ; which class holds it?
Response: bin 1

Prompt: The entry to classify is LVKDGYQMAQP [CSF1R_Y873] ; which class holds it?
Response: bin 2

Prompt: The entry to classify is PAIYTYDEYKK [COL8A2_Y648_T645I] ; which class holds it?
Response: bin 3

Prompt: The entry to classify is QHVPDYRQNGY [PCDHGA1_Y890_V894G] ; which class holds it?
Response: bin 2

Prompt: The entry to classify is VTQEQYELFCE [CBL_Y368_YF] ; which class holds it?
Response: bin 3

Prompt: The entry to classify is NNIDFYKNTTN [FGFR2_Y657_K659N_YF] ; which class holds it?
Response: bin 2

Prompt: The entry to classify is QRKRAYVEIEY [MAK16_Y282] ; which class holds it?
Response: bin 2

Prompt: The entry to classify is AMGAVYQAAAL [HYOU1_Y421] ; which class holds it?
Response: bin 1

Prompt: The entry to classify is GNFSGYDDAWD [POLR1C_Y36_YF] ; which class holds it?
Response: bin 3

Prompt: The entry to classify is PVDVAYRRGYF [PLEC_Y2967] ; which class holds it?
Response: bin 1

Prompt: The entry to classify is ALAHKHHGGGG [HBB_Y146_Y146H] ; which class holds it?
Response: bin 1

Prompt: The entry to classify is SEHLTYLEFKS [RASGRP1_Y215] ; which class holds it?
Response: bin 3

Prompt: The entry to classify is MPQNEYIELHC [NSA2_Y6_R11C] ; which class holds it?
Response: bin 3

Prompt: The entry to classify is YAFQLYDLDPD [CHP2_Y123_R127P] ; which class holds it?
Response: bin 3

Prompt: The entry to classify is GIVKAYYVHAR [AIPL1_Y267_R270H] ; which class holds it?
Response: bin 2

Prompt: The entry to classify is NVADHYGVYKP [ATP6V0D2_Y271] ; which class holds it?
Response: bin 1

Prompt: The entry to classify is LFLALYTGLVR [PIGB_Y402_H407R] ; which class holds it?
Response: bin 3

Prompt: The entry to classify is EARRVYRDIIH [ALDH5A1_Y175_G176R] ; which class holds it?
Response: bin 1

Prompt: The entry to classify is DRLTVYIDRVR [LMNA_Y45_A43T] ; which class holds it?
Response: bin 3

Prompt: The entry to classify is LEDDVYRKTCT [XPA_Y257_M256V] ; which class holds it?
Response: bin 3

Prompt: The entry to classify is SQETYYRVSNM [ABCD1_Y181_Q178E] ; which class holds it?
Response: bin 2

Prompt: The entry to classify is EASGIYVKSVI [PATJ_Y396_I400V] ; which class holds it?
Response: bin 3

Prompt: The entry to classify is RRRLIYRCQVG [NR2E3_Y81] ; which class holds it?
Response: bin 3

Prompt: The entry to classify is EEKKKYFDAKI [CASP5_Y103_T106A_YF] ; which class holds it?
Response: bin 2

Prompt: The entry to classify is VDEERYDIEAK [TNNI3_Y112] ; which class holds it?
Response: bin 3

Prompt: The entry to classify is IGVDSYSVCKR [RPS6KA3_Y433_G431D] ; which class holds it?
Response: bin 1

Prompt: The entry to classify is TNYSLYLRSLE [MTM1_Y71_R69S] ; which class holds it?
Response: bin 3

Prompt: The entry to classify is CTTFHYNFMCN [TP53_Y234_I232F_YF] ; which class holds it?
Response: bin 3

Prompt: The entry to classify is CSSPTYRDCLQ [LARGE2_Y682_R677C] ; which class holds it?
Response: bin 2

Prompt: The entry to classify is ENFSEYQEISV [HEMGN_Y150_A154S] ; which class holds it?
Response: bin 3

Prompt: The entry to classify is SHTPSYCDESL [RITA1_Y109] ; which class holds it?
Response: bin 2

###

# TARGET: Grb2 SH2 (UniProt P62993)
# Sequence (P62993 whole entry, looked up): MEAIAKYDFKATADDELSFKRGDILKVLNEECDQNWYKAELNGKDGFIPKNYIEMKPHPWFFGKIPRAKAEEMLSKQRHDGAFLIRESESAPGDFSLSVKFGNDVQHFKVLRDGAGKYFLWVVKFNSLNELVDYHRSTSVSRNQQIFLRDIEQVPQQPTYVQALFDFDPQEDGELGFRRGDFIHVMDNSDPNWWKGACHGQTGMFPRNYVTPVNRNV
# TEST: SH2 binding enrichment of the phosphorylated peptide, bacterial display (enrichment ratio); higher = better substrate or ligand; peptides without Tyr show the background
OBSERVED PROPERTY: SH2 binding enrichment
Number only, please.

Prompt: Look up and report SH2 binding enrichment, with Grb2 SH2 (UniProt P62993) as system, for KVGNEYVTKGQ [MYH7_Y410]
Response: 0.89

Prompt: Look up and report SH2 binding enrichment, with Grb2 SH2 (UniProt P62993) as system, for RTVPLYESPRK [DDB1_Y718]
Response: 0.898

Prompt: Look up and report SH2 binding enrichment, with Grb2 SH2 (UniProt P62993) as system, for KAPVDYIRKLQ [MITF_Y360_S357P]
Response: 0.912

###

# TARGET: c-Src SH2
# TEST: SH2 binding enrichment of the phosphorylated peptide, bacterial display (enrichment ratio); higher = better substrate or ligand; peptides without Tyr show the background
# label = T if SH2 binding enrichment >= 0.5 else F

Prompt: SH2 binding enrichment >= 0.5 for SEHLTYLEFKS [RASGRP1_Y215] ?
Response: F

Prompt: SH2 binding enrichment >= 0.5 for EWCSPYGLTPR [GRIN3B_Y601_R598C] ?
Response: T

Prompt: SH2 binding enrichment >= 0.5 for "TRTEAYAVSSF" ?
Response: T

Prompt: SH2 binding enrichment >= 0.5 for TSSGGYRRTPS [ABI1_Y333] ?
Response: T

Prompt: SH2 binding enrichment >= 0.5 for GDEEDYEEIPG [EGFR_opt_E_2015] ?
Response: T

Prompt: SH2 binding enrichment >= 0.5 for KFRREYILSLE [GPC3_Y299_W296R_YF] ?
Response: T

Prompt: SH2 binding enrichment >= 0.5 for QWRTKYEMDAI [MYH7_Y1375_T1377M] ?
Response: T

Prompt: SH2 binding enrichment >= 0.5 for KWHREYNFKYV [RICTOR_Y835_S837F] ?
Response: T

Prompt: SH2 binding enrichment >= 0.5 for TVQVAYFTMMM [SPATA17_Y83_YF] ?
Response: F

Prompt: SH2 binding enrichment >= 0.5 for RHCSGYVLIAM [EFR3A_Y73_R70C] ?
Response: T

Prompt: SH2 binding enrichment >= 0.5 for VCHELYNAIRD [PBRM1_Y54_T56A] ?
Response: T

Prompt: SH2 binding enrichment >= 0.5 for PQGVRYIYTID [DCX_Y103] ?
Response: T

Prompt: SH2 binding enrichment >= 0.5 for ITVPAYFNDLQ [HSPA9_Y196_S200L] ?
Response: T

Prompt: SH2 binding enrichment >= 0.5 for RFLERYIFNRQ [HLA-DPB1_Y57_E62Q_YF] ?
Response: T

Prompt: SH2 binding enrichment >= 0.5 for GMEIVYVYVKK [DNAI2_Y5] ?
Response: F

Prompt: SH2 binding enrichment >= 0.5 for RMDGKYACSYT [FLNB_Y704_T703K] ?
Response: T

Prompt: SH2 binding enrichment >= 0.5 for IDDNQYAFLKA [HNF4A_Y286_E285Q_YF] ?
Response: T

Prompt: SH2 binding enrichment >= 0.5 for CSSPTYRDCLQ [LARGE2_Y682_R677C] ?
Response: T

Prompt: SH2 binding enrichment >= 0.5 for LDLPGYCLLRE [CCDC116_Y291_P293L] ?
Response: T

Prompt: SH2 binding enrichment >= 0.5 for LSDVIYVILRK [PMP22_Y153_G150D] ?
Response: T

Prompt: SH2 binding enrichment >= 0.5 for QGIYGYHHYMQ [UFSP2_Y287] ?
Response: T

Prompt: SH2 binding enrichment >= 0.5 for STEVIYQPRRK [STK11_Y36] ?
Response: F

Prompt: SH2 binding enrichment >= 0.5 for ALECLYRREKR [TEKT5_Y195_H196R] ?
Response: F

Prompt: SH2 binding enrichment >= 0.5 for REVVNYVQKRN [RMI1_Y450] ?
Response: T

Prompt: SH2 binding enrichment >= 0.5 for DMLYQYLKQIE [RPAP3_Y569] ?
Response: T

Prompt: SH2 binding enrichment >= 0.5 for TLSGIYQFIIA [FOXL2_Y81_YF] ?
Response: T

Prompt: SH2 binding enrichment >= 0.5 for APEVIYATPGA [ABLtide_2014] ?
Response: F

Prompt: SH2 binding enrichment >= 0.5 for SGVNKYSTAFG [GJB3_Y16] ?
Response: F

Prompt: SH2 binding enrichment >= 0.5 for GPQGVYSNKLV [PTPN14_Y506] ?
Response: T

Prompt: SH2 binding enrichment >= 0.5 for LNPLVYTLRNA [OR4C12_Y285_V283L] ?
Response: T

Prompt: SH2 binding enrichment >= 0.5 for LGMSQYFRLFN [CPT2_Y217_D213G] ?
Response: T

Prompt: SH2 binding enrichment >= 0.5 for DPHKIYEFVNS [IRF3_Y107] ?
Response: T

Prompt: SH2 binding enrichment >= 0.5 for IHADIYRWFNI [MARS1_Y344] ?
Response: T

Prompt: SH2 binding enrichment >= 0.5 for YSTDCYRVGGH [NTRK2_Y707_Y706C] ?
Response: T

Prompt: SH2 binding enrichment >= 0.5 for EKLQQYLAPGM [EPHB3_Y600_I601L] ?
Response: T

Prompt: SH2 binding enrichment >= 0.5 for PEAALYGRFTI [FYN_Y440] ?
Response: F

Prompt: SH2 binding enrichment >= 0.5 for GIVEDYRPPFY [ACVRL1_Y421] ?
Response: F
